Where these numbers come from: patent US20260116991A1

- ASSAY SYSTEM: T1, human GPC3 on CHO-K1-human GPC3 cells (CHOK1-hGPC3.2B5) (human, UniProt P51654 25-554)
- T1 construct: whole, on cells
- PROTOCOL DESCRIPTION: FACS, CHOK1-hGPC3.2B5 cells;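 also: flow cytometry of humanized antibodies binding to the cells over one hour in the cold, read as cell mean fluorescence intensity, with EC50 obtained by curve fitting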
pEC50 by entry:
// field semantics: pEC50 = negative decimal log of concentration (mol/L)

// worked examples, pEC50 included
BINDER	pEC50
hAb005LH3L1 (antibody, human IgG1, V domains shown, Humanized F3.54.12; VH H3 + VL L1; expressed as human IgG1) VH: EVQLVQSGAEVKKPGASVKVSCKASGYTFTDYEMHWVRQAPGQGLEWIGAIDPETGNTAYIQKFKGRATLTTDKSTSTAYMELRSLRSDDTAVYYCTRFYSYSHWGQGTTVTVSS VL: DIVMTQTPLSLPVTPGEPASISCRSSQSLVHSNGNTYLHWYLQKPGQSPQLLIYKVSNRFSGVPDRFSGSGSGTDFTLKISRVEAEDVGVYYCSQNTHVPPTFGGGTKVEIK	9.13
hAb001H1L1 (antibody, human IgG1, V domains shown, Humanized F2.169.2; VH H1 + VL L1; expressed as human IgG1) VH: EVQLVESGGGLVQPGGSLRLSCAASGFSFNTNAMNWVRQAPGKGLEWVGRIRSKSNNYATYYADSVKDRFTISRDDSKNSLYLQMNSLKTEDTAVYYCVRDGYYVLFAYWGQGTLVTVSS VL: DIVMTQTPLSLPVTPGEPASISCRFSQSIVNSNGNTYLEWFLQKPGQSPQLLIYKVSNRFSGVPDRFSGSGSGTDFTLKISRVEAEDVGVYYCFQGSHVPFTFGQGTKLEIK	9.50

Moving on to the next binder.
Q. Item hAb006LH3L1d (antibody, human IgG1, V domains shown, Humanized F3.38.7; VH H3 + VL L1d; expressed as human IgG1) VH: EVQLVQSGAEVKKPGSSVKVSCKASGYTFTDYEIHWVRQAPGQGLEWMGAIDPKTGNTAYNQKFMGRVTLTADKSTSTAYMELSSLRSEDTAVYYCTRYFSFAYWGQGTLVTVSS VL: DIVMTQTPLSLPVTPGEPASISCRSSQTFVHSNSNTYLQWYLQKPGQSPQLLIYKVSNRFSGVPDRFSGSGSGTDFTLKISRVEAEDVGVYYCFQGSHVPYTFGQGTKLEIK has what recorded pEC50?
A. 8.70
